The reported numbers originate from patent US20240150440A1.

Target: SARS-CoV-2 spike protein on pseudotyped lentivirus (Wuhan Reference Pseudovirus) (SARS-CoV-2, UniProt P0DTC2 14-1273)
Assay: cell-based or functional assay
Value Kind: infectivity % under 10 ug/mL VHH treatment (%)

>>> reported("PP881 MBP-R5a-F2-H6 (VHH, Form: Monomer) VHH: QVQLVESGGGLVQPGGSLRLSCAASGSISSIEAMSWFRQAPGKQREGVATMASGGDTSYADSVKGRFTISRDNAKNTVYLQMNSLKPEDTAVYYCAAQTYRPDTWGRYTFWGQGTQVTVSS")
83.2
>>> reported("PP822 MBP-R5A-E5-H6 (VHH, Form: Monomer) VHH: QVQLVESGGGLVQPGGSLRLSCAASGYDFDILRMAWFRQAPGKEREMVAAITSAESVNYEDSVKGRFTISRDNAKNTVYLQMNSLKPEDTAVYYCATYDYTDDYGYASWGQGTQVTVSS")
71.6
>>> reported("PP1155 MPB-scTRP-PAPA-R2b-D5-H6 (VHH, Form: Trimer) VHH: QVQLVESGGGLVQPGGSLRLSCAASGYADEINMVHWYRQAPGKGREFVAAIASGGSTFYADSVKGRFTISRDNAKNTVYLQMNSLKPEDTAVYYCAAIPRPSLSYAHDYAYWGQGTQVTVSS")
0.01
>>> reported("PP884 MBP-R1i-A11-H6 (VHH, Form: Monomer) VHH: QVQLVESGGGLVQPGGSLRLSCAASGSILQINAIHWFRQAPGKQREEVAAITSGGSTGYADSVKGRFTISRDNAKNTVYLQMNSLKPEDTAVYYCAATSTRGGLDSDYWGQGTQVTVSS")
91.3
>>> reported("PP828 MBP-R5C-B2-H6 (VHH, Form: Monomer) VHH: QVQLVESGGGLVQPGGSLRLSCAASGSIFSLNWVHWFRQAPGKSREGVASINSGGHADYSDSVKGRFTISRDNAKNTVYLQMNSLKPEDTAVYYCAAGPYGAYNFNSWGQGTQVTVSS")
73.4
>>> reported("PP1143 MBP-5HVZ-PAPA-R2b-D5-H6 (VHH, Form: Dimer) VHH: QVQLVESGGGLVQPGGSLRLSCAASGYADEINMVHWYRQAPGKGREFVAAIASGGSTFYADSVKGRFTISRDNAKNTVYLQMNSLKPEDTAVYYCAAIPRPSLSYAHDYAYWGQGTQVTVSS")
0.09
>>> reported("PP1096 MBP-5HVZ-PAPA-RN-3-H6 (VHH) VHH: QVQLVESGGGLVQPGGSLRLSCAASGFEFTYRAVHWFRQAPGKGREWVAGVVSGGSTYYADSVKGRFTISRDNAKNTVYLQMNSLKPEDTAVYYCNAGPQAEEDTYDYWGQGTQVTVSS")
86.5
>>> reported("PP1110 MBP-5HVZ-PAPA-RN-26-H6 (VHH, Form: Dimer) VHH: QVQLVESGGGLVQPGGSLRLSCAASGSISSINSMHWYRQAPGKEREWVAAVSSYGSDYYADSVKGRFTISRDNAKNTVYLQMNSLKPEDTAVYYCAARTVTGFTYGDYWGQGTQVTVSS")
57.9
>>> reported("PP834 MBP-R5C-G2-H6 (VHH, Form: Monomer) VHH: QVQLVESGGGLVQPGGSLRLSCAASGSATSINRMAWVRQAPGKEREWVAVIDSGGYTYYADSVKGRFTISRDNAKNTVYLQMNSLKPEDTAVYYCNAVPVTTDKTPMYQYWGQGTQVTVSS")
89.2
>>> reported("PP1114 MBP-5HVZ-PAPA-RN-30-H6 (VHH, Form: Dimer) VHH: QVQLVESGGGLVQPGGSLRLSCAASGIPASYLNMHWFRQAPGKQREWVAGAGGTNSNYYQDSVKGRFTISRDNAKNTVYLQMNSLKPEDTAVYYCAALDGAESYDYVYPVWGQGTQVTVSS")
76.3
>>> reported("PP1157 MPB-scTRP-PAPA-R2d-A6-H6 (VHH, Form: Trimer) VHH: QVQLVESGGGLVQPGGSLRLSCAASGSGASIGAMHWFRQAPGKGREWVASITSAGNTYYGDSVKGRFTISRDNAKNTVYLQMNSLKPEDTAVYYCNALAGANYESQWEEYNYWGQGTQVTVSS")
32.9
>>> reported("PP1101 MBP-5HVZ-PAPA-RN-16-H6 (VHH, Form: Dimer) VHH: QVQLVESGGGLVQPGGSLRLSCAASGADFSSNAMHWFRQAPGKAREFVASIDSDKSGYYADSVKGRFTISRDNAKNTVYLQMNSLKPEDTAVYYCNAYSGTDNYGYDYWGQGTQVTVSS")
91.8
>>> reported("PP847 MBP-R5E-D1-H6 (VHH, Form: Monomer) VHH: QVQLVESGGGLVQPGGSLRLSCAASGFEFSTSAMHWYRQAPGKQREWVARITSGGSDNYGDSVKGRFTISRDNAKNTVYLQMNSLKPEDTAVYYCAAYVGTDNYGYDYWGQGTQVTVSS")
77.1
>>> reported("PP1112 MBP-5HVZ-PAPA-RN-28-H6 (VHH, Form: Dimer) VHH: QVQLVESGGGLVQPGGSLRLSCAASGSQFSHNLMSWFRQAPGKQREFVAAITSFGSTGYADSVKGRFTISRDNAKNTVYLQMNSLKPEDTAVYYCAALSSEDTSHYPRNYWGQGTQVTVSS")
70.4
>>> reported("PP1160 MPB-scTRP-PAPA-R5a-C5-H6 (VHH, Form: Trimer) VHH: QVQLVESGGGLVQPGGSLRLSCAASGDIFSINALHWFRQAPGKQREEVAAITSGGSTGYADSVKGRFTISRDNAKNTVYLQMNSLKPEDTAVYYCAAQQARGGLDSDYWGQGTQVTVSS")
4.22
